Tested on: serum lipoproteins
protocolDetails: Effect on serum lipoproteins of normolipemic male rats in a subchronic experiment
Assay type: in vivo
experimentalSetup: Rattus norvegicus, po, 10 mg/kg/day, by stomach tube, 7 administrations, read-out: Serum VLDL cholesterol, % change from control at end of treatment
Structures can show the parent of a compound that is named as a salt.
Response key: true (1) means change in vivo at 10 mg/kg >= -40%; false (0) means change in vivo at 10 mg/kg < -40%.

Prompt: Could you tell me if the measured change in vivo at 10 mg/kg of CC(C)(C)CN(C(=O)c1cnc(N2CC(C)(C)NC2=O)nc1N)c1cccc(C(F)(F)F)c1 [Example 37] reaches -40% or more?
Response: false (0)

Prompt: Now consider CCCCN(C(=O)c1cnc(N2CC(C)(C)NC2=O)nc1N)c1cccc(C(F)(F)F)c1 [Example 6, hydrochloride] .
Response: true (1)

Prompt: Now consider CN(C(=O)c1cnc(N2CC(C)(C)NC2=O)nc1N)c1cc(C(F)(F)F)ccc1F [Example 28] .
Response: false (0)

Prompt: Now consider CC(C)N(C(=O)c1cnc(N2CC(C)(C)NC2=O)nc1N)c1cccc(C(F)(F)F)c1 [Example 4, hydrochloride] .
Response: true (1)

Prompt: Now consider CCN(C(=O)c1cnc(N2CC(C)(C)NC2=O)nc1N)c1cc(C(F)(F)F)ccc1F [Example 32] .
Response: false (0)

Prompt: Now consider CC1(C)CN(c2ncc(C(=O)N(CC3CC3)c3cccc(C(F)(F)F)c3)c(N)n2)C(=O)N1 [Example 12, hydrochloride] .
Response: false (0)

Prompt: Now consider CCCN(C(=O)c1cnc(N2CC(C)(C)NC2=O)nc1N)c1cccc(C(F)(F)F)c1 [Example 33] .
Response: true (1)

Prompt: Now consider CC1(C)CN(c2ncc(C(=O)N(CC3CC3)c3cc(C(F)(F)F)ccc3F)c(N)n2)C(=O)N1 [Example 41] .
Response: false (0)

Prompt: Now consider CN(C(=O)c1cnc(N2CC(C)(C)NC2=O)nc1N)c1ccc(Br)c(C(F)(F)F)c1 [Example 30] .
Response: true (1)

Prompt: Now consider CC1(C)CN(c2ncc(C(=O)N(c3cccc(C(F)(F)F)c3)C3CCCC3)c(N)n2)C(=O)N1 [Example 42] .
Response: true (1)

====

Kindly state solubility for each of the entries shown.
protocolDetails: Solubility in water of salts (and free bases)
Assay type: physicochemical
experimentalSetup: water; Table 2, salts of compounds I; temp. by No. [°C]: 1 25.5; 2 23.0; 3 22.4; 4 22.4; 5 22.0; 6 25.0; 7 25.5; 8 25.5; 9 25.5; 10 23.5; 11 23.5; 12 25.0; 13 24.0; 14 23.0; 15 22.0; 16 24.5; 17 22.5; 18 22.0; read-out: Solubility in water, Concentration in % by wt.
Where a name gives a salt, the structure may show the parent alone.
# output: bare number, implied unit mg/mL

Prompt: Field request: solubility | item: CN(C(=O)c1cnc(N2CC(C)(C)NC2=O)nc1N)c1cc(C(F)(F)F)ccc1F [Example 28]
Response: 13.6

Prompt: Now consider C=CCN(C(=O)c1cnc(N2CC(C)(C)NC2=O)nc1N)c1cccc(C(F)(F)F)c1 [Example 40] .
Response: 76.6

Prompt: Now consider CC(C)N(C(=O)c1cnc(N2CC(C)(C)NC2=O)nc1N)c1ccc(F)c(C(F)(F)F)c1 [Example 35] .
Response: 33.8

Prompt: Now consider CC1(C)CN(c2ncc(C(=O)N(CC3CC3)c3cccc(C(F)(F)F)c3)c(N)n2)C(=O)N1 [No. 9 (Table 2)] .
Response: 71.1

Prompt: Now consider CC(C)N(C(=O)c1cnc(N2CC(C)(C)NC2=O)nc1N)c1cccc(C(F)(F)F)c1 [Example 3] .
Response: 38.9

Prompt: Now consider CC1(C)CN(c2ncc(C(=O)N(c3cccc(C(F)(F)F)c3)C3CCCC3)c(N)n2)C(=O)N1 [No. 8 (Table 2)] .
Response: 16.2

Prompt: Now consider CC(C)CC(C)N(C(=O)c1cnc(N2CC(C)(C)NC2=O)nc1N)c1cccc(C(F)(F)F)c1 (centres unmarked) [Example 38] .
Response: 61.3

Prompt: Now consider CC1(C)CN(c2ncc(C(=O)N(CC3CC3)c3cc(C(F)(F)F)ccc3F)c(N)n2)C(=O)N1 [Example 61] .
Response: 15

Prompt: Now consider CN(C(=O)c1cnc(N2CCNC2=O)nc1N)c1cccc(C(F)(F)F)c1 [Example 64, hydrochloride] .
Response: 48.1

Prompt: Now consider CCN(C(=O)c1cnc(N2CC(C)(C)NC2=O)nc1N)c1cc(C(F)(F)F)ccc1F [Example 32] .
Response: 10.1

Prompt: Now consider CCN(C(=O)c1cnc(N2CC(C)NC2=O)nc1N)c1cccc(C(F)(F)F)c1 (centres unmarked) [Example 58, hydrochloride] .
Response: 128

Prompt: Now consider CC(C)(C)CN(C(=O)c1cnc(N2CC(C)(C)NC2=O)nc1N)c1cccc(C(F)(F)F)c1 [Example 37] .
Response: 19.1

Prompt: Now consider CCN(C(=O)c1cnc(N2CC(C)(C)NC2=O)nc1N)c1cccc(C(F)(F)F)c1 [Example 1] .
Response: 68.9

Prompt: Now consider CCCCCN(C(=O)c1cnc(N2CC(C)(C)NC2=O)nc1N)c1cccc(C(F)(F)F)c1 [Example 47, hydrochloride] .
Response: 18.7

Prompt: Now consider CCCN(C(=O)c1cnc(N2CC(C)(C)NC2=O)nc1N)c1cccc(C(F)(F)F)c1 [Example 33] .
Response: 42

Prompt: Now consider CC(C)CN(C(=O)c1cnc(N2CC(C)NC2=O)nc1N)c1cccc(C(F)(F)F)c1 (centres unmarked) [Example 114] .
Response: 38.9
